Every entry's value here was drawn from BindingDB's records for doi:10.1124/jpet.104.075069.

Target: Neuronal acetylcholine receptor subunit alpha-4 (Rattus norvegicus, UniProt P09483)
Sequence (P09483 whole entry): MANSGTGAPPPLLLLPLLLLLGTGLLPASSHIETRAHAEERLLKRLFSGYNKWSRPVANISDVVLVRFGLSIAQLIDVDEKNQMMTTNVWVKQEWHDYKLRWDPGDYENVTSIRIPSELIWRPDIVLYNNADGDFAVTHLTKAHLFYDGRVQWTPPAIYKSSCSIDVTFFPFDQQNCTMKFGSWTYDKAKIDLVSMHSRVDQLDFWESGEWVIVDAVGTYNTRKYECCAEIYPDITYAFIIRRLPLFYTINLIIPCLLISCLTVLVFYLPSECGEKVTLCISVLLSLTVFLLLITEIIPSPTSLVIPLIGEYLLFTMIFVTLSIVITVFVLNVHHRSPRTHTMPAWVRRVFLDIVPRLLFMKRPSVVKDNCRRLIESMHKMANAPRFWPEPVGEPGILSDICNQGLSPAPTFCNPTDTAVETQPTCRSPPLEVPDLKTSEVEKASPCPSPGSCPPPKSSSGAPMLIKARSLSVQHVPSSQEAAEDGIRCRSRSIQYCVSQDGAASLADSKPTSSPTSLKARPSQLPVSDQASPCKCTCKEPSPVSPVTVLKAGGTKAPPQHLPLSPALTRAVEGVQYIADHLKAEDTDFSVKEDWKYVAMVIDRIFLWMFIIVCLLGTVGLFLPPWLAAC
pKi: −log10 of the molar value.
Label Met when pKi >= 9; otherwise Not met.

Please review the entries below; each comes with its answer.
| molecule | target entity | cat |
| --- | --- | --- |
| COc1ccc(C=C2CCCN=C2c2cccnc2)c(OC)c1 [CAS_156223-05-1] | Neuronal acetylcholine receptor subunit alpha-4 (Rattus norvegicus, UniProt P09483) | Not met |
| Cc1cc(C2CCCN2C)on1 (centres undefined) [ABT-418] | Neuronal acetylcholine receptor subunit alpha-4 (Rattus norvegicus, UniProt P09483) | Not met |
| C[N+](C)(C)CCOC(N)=O | Neuronal acetylcholine receptor subunit alpha-4 (Rattus norvegicus, UniProt P09483) | Not met |
| COC1CC=C2CCN3CCC4=C(CC(=O)OC4)C23C1 (centres undefined) [NSC_31762] | Neuronal acetylcholine receptor subunit alpha-4 (Rattus norvegicus, UniProt P09483) | Not met |
| CNC(=O)OCC[N+](C)(C)C [CAS_14721-69-8] | Neuronal acetylcholine receptor subunit alpha-4 (Rattus norvegicus, UniProt P09483) | Not met |

Lookup: Check this molecule for pKi at or above 9: O=c1cccc2n1CC1CNCC2C1 (centres undefined) [CAS_485-35-8]
Found: Met

Lookup: Check this molecule for pKi at or above 9: CCN1CC2(COC(=O)c3ccccc3-n3c(O)cc(C)c3O)CCC(OC)C34C5CC6C(OC)CC(O)(C5C6OC)C(O)(C(OC)C23)C14 (centres undefined) [CAS_21019-30-7]
Found: Not met

Lookup: Check this molecule for pKi at or above 9: C#Cc1cncc(C2CCCN2C)c1 (centres undefined) [NSC_6442277]
Found: Met

---

pKi data for Neuronal acetylcholine receptor subunit alpha-7 (Rattus norvegicus) follow.
To interpret pKi, take it as minus log10 of a concentration measured in moles per litre.

Record excerpt, results attached:
| compound | pKi |
| --- | --- |
| c1cncc(OCC2CCN2)c1 (centres undefined) | 7.26 |
| C#Cc1cncc(C2CCCN2C)c1 (centres undefined) | 4.84 |
| COc1ccc(C=C2CCCN=C2c2cccnc2)c(OC)c1 | 6.22 |
| C[N+](C)(C)CCOC(N)=O | 5.00 |
| c1cncc(C2CC3CCN2CC3)c1 (centres undefined) | 7.91 |
| Cc1cc(C2CCCN2C)on1 (centres undefined) | 5.71 |
| O=c1cccc2n1CC1CNCC2C1 (centres undefined) | 5.94 |
| CNC(=O)OCC[N+](C)(C)C | 5.36 |

Lookup: Returns the measured pKi for the input compound. Input: COC1CC=C2CCN3CCC4=C(CC(=O)OC4)C23C1 (centres undefined)
Found: 5.11
